# assayed-system: 5-hydroxytryptamine receptor 3A (Homo sapiens)
# Sequence (whole entry): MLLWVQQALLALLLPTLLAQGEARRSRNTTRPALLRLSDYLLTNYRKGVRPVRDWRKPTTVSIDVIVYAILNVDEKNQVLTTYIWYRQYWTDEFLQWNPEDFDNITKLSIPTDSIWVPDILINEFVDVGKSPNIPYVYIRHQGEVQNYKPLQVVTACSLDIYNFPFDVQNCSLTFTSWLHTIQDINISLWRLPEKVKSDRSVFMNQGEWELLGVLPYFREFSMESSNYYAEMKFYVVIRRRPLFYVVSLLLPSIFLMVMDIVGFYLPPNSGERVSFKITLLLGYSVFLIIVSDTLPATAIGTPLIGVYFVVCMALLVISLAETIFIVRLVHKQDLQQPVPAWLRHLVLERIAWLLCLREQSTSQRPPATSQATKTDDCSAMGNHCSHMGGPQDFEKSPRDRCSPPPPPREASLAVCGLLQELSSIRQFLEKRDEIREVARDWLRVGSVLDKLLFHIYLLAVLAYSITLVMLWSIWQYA
# experiment-summary: Partial agonist activity at human 5-HT3A receptor expressed in HEK293 cells assessed as change in Ca2+ level measured as intrinsic activity at 1 uM relative to 5-HT in presence of carbachol
# Format: cell-based
Mark -1 for Activity values under 30%, and 1 for everything at or above.

1) COc1cc2c3c(cnn3CCN([C@@H]3CN4CCC3CC4)C2=O)c1 ... 1
2) O=C1c2cccc3cnn(c23)CCN1[C@@H]1CN2CCC1CC2 ... -1
3) O=C1c2cccc3ccn(c23)CCN1[C@@H]1CN2CCC1CC2 ... -1
4) O=C1c2cc(Cl)cc3cnn(c23)CCN1[C@@H]1CN2CCC1CC2 ... -1
5) O=C1c2cccc3[nH]c(=O)n(c23)CCN1[C@@H]1CN2CCC1CC2 ... 1

###

We begin with a simple list: items and their reported Ki.
# assayed-system: 5-hydroxytryptamine receptor 3A (Homo sapiens, UniProt P46098)
# Sequence (P46098 whole entry): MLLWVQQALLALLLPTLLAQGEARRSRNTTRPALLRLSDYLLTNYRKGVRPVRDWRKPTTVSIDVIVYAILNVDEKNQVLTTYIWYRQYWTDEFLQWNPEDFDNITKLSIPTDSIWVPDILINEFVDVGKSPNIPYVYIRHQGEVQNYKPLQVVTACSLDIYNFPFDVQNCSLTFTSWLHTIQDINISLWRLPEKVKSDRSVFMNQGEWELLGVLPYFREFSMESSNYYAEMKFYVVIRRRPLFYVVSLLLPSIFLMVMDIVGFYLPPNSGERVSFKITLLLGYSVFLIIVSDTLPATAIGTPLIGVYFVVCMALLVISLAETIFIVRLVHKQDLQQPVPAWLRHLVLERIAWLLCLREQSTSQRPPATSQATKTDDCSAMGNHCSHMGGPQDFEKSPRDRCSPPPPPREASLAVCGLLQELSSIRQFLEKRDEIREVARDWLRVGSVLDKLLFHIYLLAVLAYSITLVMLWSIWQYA
recorded-metric: Ki

1) COc1cc2c3c(cnn3CCN([C@@H]3CN4CCC3CC4)C2=O)c1 ... 13.5 nM
2) O=C1c2cccc3cnn(c23)CCN1[C@@H]1CN2CCC1CC2 ... 8.1 nM
3) O=C1c2cccc3ccn(c23)CCN1[C@H]1CN2CCC1CC2 ... 67.6 nM
4) O=C1c2cc(F)cc3cnn(c23)CCN1[C@@H]1CN2CCC1CC2 ... 6.4 nM
5) O=C1c2cccc3[nH]c(=O)n(c23)CCN1[C@@H]1CN2CCC1CC2 ... 5.7 nM
6) O=C1c2cccc3ccn(c23)CCN1[C@@H]1CN2CCC1CC2 ... 3.1 nM
7) Cc1cc2c3c(cnn3CCN([C@@H]3CN4CCC3CC4)C2=O)c1 ... 0.8 nM
